FYI, the data here is from the supplement of paper PMC10307832.

// values below are reported relative viability
System: HARA
Assay: relative viability (nuclei count vs DMSO), 5 days (fraction); higher = more cells survive
Conditions: first compound 0.006325 µM
Hey, just send me the number, nothing else.

Example cases with answers are listed next.
[[record]]
molecule = "CCNC(=O)c1noc(-c2cc(C(C)C)c(O)cc2O)c1-c1ccc(CN2CCOCC2)cc1 [Luminespib] + CS(=O)(=O)N1CCN(Cc2cc3nc(-c4cccc5[nH]ncc45)nc(N4CCOCC4)c3s2)CC1 [Pictilisib] (partner 1 µM)"
test_value = 0.396

[[record]]
molecule = "CCNC(=O)c1noc(-c2cc(C(C)C)c(O)cc2O)c1-c1ccc(CN2CCOCC2)cc1 [Luminespib] + CS(=O)(=O)CCNCc1ccc(-c2ccc3ncnc(Nc4ccc(OCc5cccc(F)c5)c(Cl)c4)c3c2)o1 [Lapatinib] (partner 2 µM)"
test_value = 0.709

[[record]]
molecule = "CCNC(=O)c1noc(-c2cc(C(C)C)c(O)cc2O)c1-c1ccc(CN2CCOCC2)cc1 [Luminespib] + CC(=O)Nc1cccc(-n2c(=O)n(C3CC3)c(=O)c3c(Nc4ccc(I)cc4F)n(C)c(=O)c(C)c32)c1 [Trametinib] (partner 0.02 µM)"
test_value = 0.614


Entry under review: CCNC(=O)c1noc(-c2cc(C(C)C)c(O)cc2O)c1-c1ccc(CN2CCOCC2)cc1 [Luminespib] + CC1(C)CCC(c2ccc(Cl)cc2)=C(CN2CCN(c3ccc(C(=O)NS(=O)(=O)c4ccc(N[C@H](CCN5CCOCC5)CSc5ccccc5)c(S(=O)(=O)C(F)(F)F)c4)cc3)CC2)C1 [Navitoclax] (partner 0.5 µM) . Reported relative viability? 1.14

====

System: PC-14
Assay: relative viability (nuclei count vs DMSO), 5 days (fraction); higher = more cells survive
Conditions: first compound 0.06325 µM
Property label: relative viability

Example cases with answers are listed next.
[[record]]
compound = "CCNC(=O)c1noc(-c2cc(C(C)C)c(O)cc2O)c1-c1ccc(CN2CCOCC2)cc1 [Luminespib] + Cc1cc(Nc2cc(N3CCN(C)CC3)nc(Sc3ccc(NC(=O)C4CC4)cc3)n2)n[nH]1 [Tozasertib] (partner 0.1 µM)"
subject_of_test = "PC-14"
property_label = "relative viability"
test_value = 0.0498

[[record]]
compound = "CCNC(=O)c1noc(-c2cc(C(C)C)c(O)cc2O)c1-c1ccc(CN2CCOCC2)cc1 [Luminespib] + CC(=O)c1c(C)c2cnc(Nc3ccc(N4CCNCC4)cn3)nc2n(C2CCCC2)c1=O [Palbociclib] (partner 0.5 µM)"
subject_of_test = "PC-14"
property_label = "relative viability"
test_value = 0.0535


Entry under review: CCNC(=O)c1noc(-c2cc(C(C)C)c(O)cc2O)c1-c1ccc(CN2CCOCC2)cc1 [Luminespib] + CC(C)C[C@H](NC(=O)[C@H](Cc1ccccc1)NC(=O)c1cnccn1)B(O)O [Bortezomib] (partner 0.002 µM) . Reported relative viability? 0.314

Entry under review: CCNC(=O)c1noc(-c2cc(C(C)C)c(O)cc2O)c1-c1ccc(CN2CCOCC2)cc1 [Luminespib] + C[C@@H](Oc1cc(-c2cnn(C3CCNCC3)c2)cnc1N)c1c(Cl)ccc(F)c1Cl [Crizotinib] (partner 1 µM) . Reported relative viability? 0.171

Entry under review: CCNC(=O)c1noc(-c2cc(C(C)C)c(O)cc2O)c1-c1ccc(CN2CCOCC2)cc1 [Luminespib] + COc1cc2c(Oc3ccc(NC(=O)C4(C(=O)Nc5ccc(F)cc5)CC4)cc3F)ccnc2cc1OCCCN1CCOCC1 [Foretinib] (partner 0.25 µM) . Reported relative viability? 0.567

Entry under review: CCNC(=O)c1noc(-c2cc(C(C)C)c(O)cc2O)c1-c1ccc(CN2CCOCC2)cc1 [Luminespib] + Cc1nc(NC(=O)N2CCC[C@H]2C(N)=O)sc1-c1ccnc(C(C)(C)C(F)(F)F)c1 [Alpelisib] (partner 2 µM) . Reported relative viability? 0.091

Entry under review: CCNC(=O)c1noc(-c2cc(C(C)C)c(O)cc2O)c1-c1ccc(CN2CCOCC2)cc1 [Luminespib] + Cc1nc(Nc2ncc(C(=O)Nc3c(C)cccc3Cl)s2)cc(N2CCN(CCO)CC2)n1 [Dasatinib] (partner 0.075 µM) . Reported relative viability? 0.0382

Entry under review: CCNC(=O)c1noc(-c2cc(C(C)C)c(O)cc2O)c1-c1ccc(CN2CCOCC2)cc1 [Luminespib] + CS(=O)(=O)N1CCN(Cc2cc3nc(-c4cccc5[nH]ncc45)nc(N4CCOCC4)c3s2)CC1 [Pictilisib] (partner 1 µM) . Reported relative viability? 0.0484

Entry under review: CCNC(=O)c1noc(-c2cc(C(C)C)c(O)cc2O)c1-c1ccc(CN2CCOCC2)cc1 [Luminespib] + Nc1nc2[nH]cc(CCc3ccc(C(=O)N[C@@H](CCC(=O)O)C(=O)O)cc3)c2c(=O)[nH]1 [Pemetrexed] (partner 0.2 µM) . Reported relative viability? 0.0853

====

System: NCI-H2085
Assay: relative viability (nuclei count vs DMSO), 5 days (fraction); higher = more cells survive
Details: first compound 0.03162 µM
// values below are reported relative viability
Hey, just send me the number, nothing else.

[[record]]
compound = "Cc1cn(-c2cc(NC(=O)c3ccc(C)c(Nc4nccc(-c5cccnc5)n4)c3)cc(C(F)(F)F)c2)cn1 [Nilotinib] + CCNC(=O)c1noc(-c2cc(C(C)C)c(O)cc2O)c1-c1ccc(CN2CCOCC2)cc1 [Luminespib] (partner 0.01 µM)"
test_value = 0.375

[[record]]
compound = "Cc1cn(-c2cc(NC(=O)c3ccc(C)c(Nc4nccc(-c5cccnc5)n4)c3)cc(C(F)(F)F)c2)cn1 [Nilotinib] + CC(=O)c1c(C)c2cnc(Nc3ccc(N4CCNCC4)cn3)nc2n(C2CCCC2)c1=O [Palbociclib] (partner 0.5 µM)"
test_value = 0.498


# context switch: different compound, same relative viability
Entry under review: Cc1cn(-c2cc(NC(=O)c3ccc(C)c(Nc4nccc(-c5cccnc5)n4)c3)cc(C(F)(F)F)c2)cn1 [Nilotinib] + CS(=O)(=O)CCNCc1ccc(-c2ccc3ncnc(Nc4ccc(OCc5cccc(F)c5)c(Cl)c4)c3c2)o1 [Lapatinib] (partner 2 µM) . Reported relative viability? 0.66

====

System: NCI-H1915
Assay: relative viability (nuclei count vs DMSO), 5 days (fraction); higher = more cells survive
Settings: first compound 20 µM
Consider the cut-off 0.3. If the recorded relative viability is strictly smaller, the label is yes; if not, the label is no.

[[record]]
molecule = "Cc1csc(=NC2CCCCC2)n1/N=C/c1ccc(O)c(O)c1O [MIM1] + COc1cc2c(Oc3ccc(NC(=O)C4(C(=O)Nc5ccc(F)cc5)CC4)cc3F)ccnc2cc1OCCCN1CCOCC1 [Foretinib] (partner 0.25 µM)"
label = "yes"


# TODO verify relative viability < 0.3 strictly for this molecule: Cc1csc(=NC2CCCCC2)n1/N=C/c1ccc(O)c(O)c1O [MIM1] + C[C@@H](Oc1cc(-c2cnn(C3CCNCC3)c2)cnc1N)c1c(Cl)ccc(F)c1Cl [Crizotinib] (partner 1 µM) yes

# TODO verify relative viability < 0.3 strictly for this molecule: Cc1csc(=NC2CCCCC2)n1/N=C/c1ccc(O)c(O)c1O [MIM1] + Cc1nc(NC(=O)N2CCC[C@H]2C(N)=O)sc1-c1ccnc(C(C)(C)C(F)(F)F)c1 [Alpelisib] (partner 2 µM) yes

# TODO verify relative viability < 0.3 strictly for this molecule: Cc1csc(=NC2CCCCC2)n1/N=C/c1ccc(O)c(O)c1O [MIM1] + Nc1ncn([C@H]2C[C@H](O)[C@@H](CO)O2)c(=O)n1 [Decitabine] (partner 2 µM) yes

# TODO verify relative viability < 0.3 strictly for this molecule: Cc1csc(=NC2CCCCC2)n1/N=C/c1ccc(O)c(O)c1O [MIM1] + CC1(C)CCC(c2ccc(Cl)cc2)=C(CN2CCN(c3ccc(C(=O)NS(=O)(=O)c4ccc(N[C@H](CCN5CCOCC5)CSc5ccccc5)c(S(=O)(=O)C(F)(F)F)c4)cc3)CC2)C1 [Navitoclax] (partner 0.5 µM) no

# TODO verify relative viability < 0.3 strictly for this molecule: Cc1csc(=NC2CCCCC2)n1/N=C/c1ccc(O)c(O)c1O [MIM1] + CC(=O)Nc1cccc(-n2c(=O)n(C3CC3)c(=O)c3c(Nc4ccc(I)cc4F)n(C)c(=O)c(C)c32)c1 [Trametinib] (partner 0.02 µM) no

====

Test system: HCC-78
Experiment: relative viability (nuclei count vs DMSO), 5 days (fraction); higher = more cells survive
Conditions: first compound 0.253 µM
Property label: relative viability

Example cases with answers are listed next.
[[record]]
molecule = "Nc1cccc2c1CN(C1CCC(=O)NC1=O)C2=O (stereo not drawn) [Lenalidomide] + CS(=O)(=O)N1CCN(Cc2cc3nc(-c4cccc5[nH]ncc45)nc(N4CCOCC4)c3s2)CC1 [Pictilisib] (partner 1 µM)"
test_value = 0.233

[[record]]
molecule = "Nc1cccc2c1CN(C1CCC(=O)NC1=O)C2=O (stereo not drawn) [Lenalidomide] + COc1cc2c(Oc3ccc(NC(=O)C4(C(=O)Nc5ccc(F)cc5)CC4)cc3F)ccnc2cc1OCCCN1CCOCC1 [Foretinib] (partner 0.25 µM)"
test_value = 0.673

[[record]]
molecule = "Nc1cccc2c1CN(C1CCC(=O)NC1=O)C2=O (stereo not drawn) [Lenalidomide] + CC(=O)Nc1cccc(-n2c(=O)n(C3CC3)c(=O)c3c(Nc4ccc(I)cc4F)n(C)c(=O)c(C)c32)c1 [Trametinib] (partner 0.02 µM)"
test_value = 0.728

[[record]]
molecule = "Nc1cccc2c1CN(C1CCC(=O)NC1=O)C2=O (stereo not drawn) [Lenalidomide] + Cc1nc(Nc2ncc(C(=O)Nc3c(C)cccc3Cl)s2)cc(N2CCN(CCO)CC2)n1 [Dasatinib] (partner 0.075 µM)"
test_value = 0.52

[[record]]
molecule = "Nc1cccc2c1CN(C1CCC(=O)NC1=O)C2=O (stereo not drawn) [Lenalidomide] + COc1cccc2cc(-c3nc([C@H]4CC[C@H](C(=O)O)CC4)n4ncnc(N)c34)[nH]c12 [OSI-027] (partner 0.5 µM)"
test_value = 0.418

[[record]]
molecule = "Nc1cccc2c1CN(C1CCC(=O)NC1=O)C2=O (stereo not drawn) [Lenalidomide] + CS(=O)(=O)CCNCc1ccc(-c2ccc3ncnc(Nc4ccc(OCc5cccc(F)c5)c(Cl)c4)c3c2)o1 [Lapatinib] (partner 2 µM)"
test_value = 0.811


Given the entry Nc1cccc2c1CN(C1CCC(=O)NC1=O)C2=O (stereo not drawn) [Lenalidomide] + C[C@]1(O)C[C@@H](c2nc(-c3ccc4ccc(-c5ccccc5)nc4c3)c3c(N)nccn32)C1 [Linsitinib] (partner 1 µM) , what relative viability was observed with HCC-78? 0.55

Given the entry Nc1cccc2c1CN(C1CCC(=O)NC1=O)C2=O (stereo not drawn) [Lenalidomide] + C[C@@H](Oc1cc(-c2cnn(C3CCNCC3)c2)cnc1N)c1c(Cl)ccc(F)c1Cl [Crizotinib] (partner 1 µM) , what relative viability was observed with HCC-78? 0.304
